target: Metabotropic glutamate receptor 5 (Homo sapiens)
endpoint label: Ki (nM)
Respond with the bare value in nM.

Cc1ccc(S(=O)(=O)c2cnc3ccccc3c2NCc2ccccc2)cc1 | 198

[ask] # input molecule: O=S(=O)(c1cccc(Cl)c1)c1cnc2cc(Cl)ccc2c1N1CCC(CO)CC1 ; wanted: its Ki
[reply] 30.9

[ask] Another molecule: N#Cc1cc(F)cc(S(=O)(=O)c2cnc3cc(Cl)ccc3c2N2CCC(CO)CC2)c1
[reply] 24.1

###

target: Metabotropic glutamate receptor 5 (Homo sapiens, UniProt P41594); test: Displacement of [3H]M-MPEP from mGluR5 (unknown origin) at 1 uM measured after 60 mins relative to control
Sequence (P41594 21-1212 limits assumed): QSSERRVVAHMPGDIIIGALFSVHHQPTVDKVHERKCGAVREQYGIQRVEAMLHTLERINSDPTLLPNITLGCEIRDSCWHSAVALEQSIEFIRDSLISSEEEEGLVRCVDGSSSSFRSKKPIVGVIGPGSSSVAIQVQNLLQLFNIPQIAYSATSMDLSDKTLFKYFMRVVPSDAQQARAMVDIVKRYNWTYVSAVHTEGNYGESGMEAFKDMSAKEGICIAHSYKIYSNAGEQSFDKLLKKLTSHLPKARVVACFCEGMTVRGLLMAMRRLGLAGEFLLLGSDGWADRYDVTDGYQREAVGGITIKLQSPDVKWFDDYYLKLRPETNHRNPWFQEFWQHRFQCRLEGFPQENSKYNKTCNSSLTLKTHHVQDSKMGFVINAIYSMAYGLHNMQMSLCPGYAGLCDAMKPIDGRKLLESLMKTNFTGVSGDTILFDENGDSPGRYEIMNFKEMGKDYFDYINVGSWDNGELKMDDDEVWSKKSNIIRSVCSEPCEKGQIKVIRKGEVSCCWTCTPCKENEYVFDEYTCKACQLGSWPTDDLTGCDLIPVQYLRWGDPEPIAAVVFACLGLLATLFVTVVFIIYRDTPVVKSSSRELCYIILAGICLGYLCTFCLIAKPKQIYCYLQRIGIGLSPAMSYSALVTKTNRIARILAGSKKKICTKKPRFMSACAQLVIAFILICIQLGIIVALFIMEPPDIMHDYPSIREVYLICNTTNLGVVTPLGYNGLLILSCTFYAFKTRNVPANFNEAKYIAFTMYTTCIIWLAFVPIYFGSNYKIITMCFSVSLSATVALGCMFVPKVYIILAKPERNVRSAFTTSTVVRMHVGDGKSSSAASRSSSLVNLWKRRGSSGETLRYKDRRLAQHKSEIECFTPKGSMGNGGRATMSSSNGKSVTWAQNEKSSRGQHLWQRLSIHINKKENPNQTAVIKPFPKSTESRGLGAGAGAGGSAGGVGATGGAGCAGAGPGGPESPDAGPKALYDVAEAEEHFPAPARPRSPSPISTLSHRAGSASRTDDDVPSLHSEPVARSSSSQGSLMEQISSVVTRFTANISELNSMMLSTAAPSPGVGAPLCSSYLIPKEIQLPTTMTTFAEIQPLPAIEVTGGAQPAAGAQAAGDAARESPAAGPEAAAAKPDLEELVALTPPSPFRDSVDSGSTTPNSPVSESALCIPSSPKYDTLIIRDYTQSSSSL
endpoint label: inhibition (%)
Respond with the bare value in %.

Example results:
Cc1ccc(S(=O)(=O)c2cnc3ccc(Cl)cc3c2N2CCOCC2)cc1 | 84
O=S(=O)(c1cccc(F)c1)c1cnc2cc(Cl)ccc2c1N1CCOCC1 | 32
Cc1cc(C)cc(S(=O)(=O)c2cnc3cc(F)ccc3c2N2CCOCC2)c1 | 58

[ask] # input compound: CC1CCN(c2c(S(=O)(=O)c3ccc(Cl)c(Cl)c3)cnc3ccc(F)cc23)CC1 ; wanted: its inhibition
[reply] 91

[ask] Another compound: CC1CCN(c2c(S(=O)(=O)c3ccc(Cl)c(Cl)c3)cnc3ccc(Cl)cc23)CC1
[reply] 86

[ask] Another compound: Cc1ccc(S(=O)(=O)c2cnc3ccc(Cl)cc3c2N2CCC(C)CC2)cc1
[reply] 95

[ask] Another compound: NC(=O)C1CCN(c2c(S(=O)(=O)c3ccccc3)cnc3ccccc23)CC1
[reply] 24.8

[ask] Another compound: COc1ccc(S(=O)(=O)c2cnc3c(F)cccc3c2N2CCOCC2)cc1
[reply] 33
